Test system: Epidermal growth factor receptor (Homo sapiens), P00533 [T790M]
Sequence (P00533 whole entry T790M): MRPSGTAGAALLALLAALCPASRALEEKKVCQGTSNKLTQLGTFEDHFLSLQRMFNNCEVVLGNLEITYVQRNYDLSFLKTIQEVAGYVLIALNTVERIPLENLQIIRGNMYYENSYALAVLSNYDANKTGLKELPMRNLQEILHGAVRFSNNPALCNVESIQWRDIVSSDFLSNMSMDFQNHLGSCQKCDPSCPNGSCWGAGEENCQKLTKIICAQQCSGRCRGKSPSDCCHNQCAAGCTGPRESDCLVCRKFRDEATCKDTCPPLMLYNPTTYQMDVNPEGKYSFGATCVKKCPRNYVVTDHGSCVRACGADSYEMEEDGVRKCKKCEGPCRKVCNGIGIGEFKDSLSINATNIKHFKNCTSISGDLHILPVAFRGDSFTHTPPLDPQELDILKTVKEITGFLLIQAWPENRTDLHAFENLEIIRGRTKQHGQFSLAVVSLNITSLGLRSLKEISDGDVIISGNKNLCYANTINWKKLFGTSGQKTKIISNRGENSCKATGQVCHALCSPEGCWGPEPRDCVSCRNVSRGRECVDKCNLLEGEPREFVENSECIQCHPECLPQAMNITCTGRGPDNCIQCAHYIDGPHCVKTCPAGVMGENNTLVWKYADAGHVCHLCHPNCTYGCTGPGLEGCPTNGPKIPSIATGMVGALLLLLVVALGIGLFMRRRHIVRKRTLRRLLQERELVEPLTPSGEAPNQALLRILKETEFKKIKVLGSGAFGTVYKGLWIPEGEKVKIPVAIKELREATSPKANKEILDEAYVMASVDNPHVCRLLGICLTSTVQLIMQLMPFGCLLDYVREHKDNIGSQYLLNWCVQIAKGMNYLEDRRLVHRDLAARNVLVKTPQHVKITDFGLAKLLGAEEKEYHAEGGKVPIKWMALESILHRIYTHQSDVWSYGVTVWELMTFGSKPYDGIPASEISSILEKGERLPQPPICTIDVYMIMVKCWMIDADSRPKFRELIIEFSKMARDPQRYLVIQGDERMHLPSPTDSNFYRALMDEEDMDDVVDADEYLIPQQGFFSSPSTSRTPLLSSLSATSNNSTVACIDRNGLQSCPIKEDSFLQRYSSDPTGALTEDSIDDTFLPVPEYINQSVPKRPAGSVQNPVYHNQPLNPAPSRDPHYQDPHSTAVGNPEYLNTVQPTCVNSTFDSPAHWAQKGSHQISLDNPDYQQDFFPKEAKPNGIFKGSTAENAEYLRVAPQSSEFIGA
condition: at 1 µM

sample-smiles	inhibition
COc1ccc2ncnc(Nc3ccc(OCc4ccccc4)cc3)c2c1	5.68%
FC(F)(F)c1ccc(-c2nn3ncccc3c2-c2ccnc(Nc3ccc4c(c3)OCCO4)n2)cc1	7.94%
COc1ccc(-c2nn3ncccc3c2-c2ccnc(Nc3cccc(C(F)(F)F)c3)n2)cc1	2.06%
NS(=O)(=O)c1cccc(Nc2cc(-c3ccc(F)cc3)n[nH]2)c1	3.89%
NS(=O)(=O)c1ccc(Nc2cc(-c3cccc(O)c3)n[nH]2)cc1	3.02%
NS(=O)(=O)c1ccc(N/N=C2\C(=O)Nc3ccc(Cl)cc32)cc1	4.35%
O=C(Nc1ccc(Oc2ccc3[nH]c(NC(=O)c4ccco4)nc3c2)cc1)Nc1cc(C(F)(F)F)ccc1F	-1.32%
OCc1ccc(-c2nc(-c3ccccn3)c(-c3ccc4c(c3)OCO4)[nH]2)cc1	0.84%
COc1cc2ncnc(Nc3ccc4c(cnn4Cc4ccccc4)c3)c2cc1OC	36.2%

---

System: Platelet-derived growth factor receptor alpha (Homo sapiens), P16234 [T674I]
Sequence (P16234 whole entry T674I): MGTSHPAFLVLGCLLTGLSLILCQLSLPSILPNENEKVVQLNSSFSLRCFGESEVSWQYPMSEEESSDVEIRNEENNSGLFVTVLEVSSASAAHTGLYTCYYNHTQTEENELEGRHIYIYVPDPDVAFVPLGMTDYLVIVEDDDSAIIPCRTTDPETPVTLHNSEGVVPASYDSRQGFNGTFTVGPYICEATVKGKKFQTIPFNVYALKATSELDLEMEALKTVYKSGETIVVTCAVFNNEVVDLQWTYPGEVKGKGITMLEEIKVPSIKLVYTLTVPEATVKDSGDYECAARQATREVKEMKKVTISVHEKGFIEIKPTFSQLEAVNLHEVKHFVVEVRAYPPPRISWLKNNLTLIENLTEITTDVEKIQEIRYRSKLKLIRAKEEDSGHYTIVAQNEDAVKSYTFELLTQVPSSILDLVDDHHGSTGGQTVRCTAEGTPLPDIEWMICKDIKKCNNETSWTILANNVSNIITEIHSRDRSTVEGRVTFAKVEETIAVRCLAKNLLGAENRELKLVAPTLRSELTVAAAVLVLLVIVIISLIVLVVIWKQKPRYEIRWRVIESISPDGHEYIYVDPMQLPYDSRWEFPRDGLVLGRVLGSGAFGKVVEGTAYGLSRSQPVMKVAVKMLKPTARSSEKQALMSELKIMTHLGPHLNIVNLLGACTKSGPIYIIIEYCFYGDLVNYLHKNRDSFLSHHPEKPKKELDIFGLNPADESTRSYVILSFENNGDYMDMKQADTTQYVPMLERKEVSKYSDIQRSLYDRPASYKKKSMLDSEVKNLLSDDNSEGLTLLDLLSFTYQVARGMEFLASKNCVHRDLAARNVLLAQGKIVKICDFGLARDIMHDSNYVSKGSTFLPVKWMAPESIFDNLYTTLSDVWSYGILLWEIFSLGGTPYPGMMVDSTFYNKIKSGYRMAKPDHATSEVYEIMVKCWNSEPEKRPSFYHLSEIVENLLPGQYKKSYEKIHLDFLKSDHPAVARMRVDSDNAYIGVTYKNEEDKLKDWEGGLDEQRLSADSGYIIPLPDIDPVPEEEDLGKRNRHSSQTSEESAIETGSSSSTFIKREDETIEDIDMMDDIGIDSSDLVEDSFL
condition: at 1 µM
The reader will find reported inhibition values listed item by item below.

sample-smiles	inhibition
CCS(=O)(=O)c1ccc(OC)c(Nc2nccc(N(C)c3ccc4c(C)n[nH]c4c3)n2)c1	12.5%
Cc1ccc(NC(=O)CC2CC2)cc1-c1ccc(C(=O)NCC2CC2)cc1	9.3%
CN(C)CCCn1c(-c2nonc2N)nc2cnccc21	7.54%
CCOc1nccc2c1nc(-c1nonc1N)n2CC	9.83%
CC(C)c1ccc2c(c1)NC(=O)/C2=N/Nc1ccc(S(N)(=O)=O)cc1	48.9%
Cc1cc(O)cc(C)c1/C=C/c1cncc(C(=O)N(C)C)c1	1.18%

---

Form field: inhibition (one value per entry).
target-desc: Glycogen synthase kinase-3 beta (Homo sapiens) (UniProt P49841);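 further: reported values are mean percent inhibition of GSK3B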
Sequence (P49841 whole entry, looked up): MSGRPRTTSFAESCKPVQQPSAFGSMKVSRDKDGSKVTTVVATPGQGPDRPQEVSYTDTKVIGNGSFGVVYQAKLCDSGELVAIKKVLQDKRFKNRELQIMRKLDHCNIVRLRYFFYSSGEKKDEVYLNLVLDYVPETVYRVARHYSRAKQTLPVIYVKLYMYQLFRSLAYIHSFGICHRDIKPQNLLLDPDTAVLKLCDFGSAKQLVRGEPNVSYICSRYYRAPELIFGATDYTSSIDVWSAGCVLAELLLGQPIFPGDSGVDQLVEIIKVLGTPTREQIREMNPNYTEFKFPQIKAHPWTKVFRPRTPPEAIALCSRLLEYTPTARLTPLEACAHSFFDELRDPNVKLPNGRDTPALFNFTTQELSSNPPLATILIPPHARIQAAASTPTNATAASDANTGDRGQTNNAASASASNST
condition: at 1 µM

compound	target-desc	inhibition
ON=C1CCc2cc(-c3nc(C4CCNCC4)[nH]c3-c3ccncc3)ccc21	Glycogen synthase kinase-3 beta (Homo sapiens) (UniProt P49841)	4.56%
CC(C)c1ccc(Nc2nccc(-c3cnn4ncccc34)n2)cc1	Glycogen synthase kinase-3 beta (Homo sapiens) (UniProt P49841)	75.4%
COc1ccc2ncnc(Nc3ccc(OCc4ccccc4)cc3)c2c1	Glycogen synthase kinase-3 beta (Homo sapiens) (UniProt P49841)	0.7%
CCCN1CCCC(c2ccc(Nc3nc(Nc4cc(F)ccc4C(N)=O)c4cc[nH]c4n3)c(OC)c2)C1 (stereo unspecified)	Glycogen synthase kinase-3 beta (Homo sapiens) (UniProt P49841)	4.25%
Cc1ccc2c(-c3ccnc(Nc4ccc5c(c4)OCCO5)n3)c(-c3ccc(C(F)(F)F)cc3)nn2n1	Glycogen synthase kinase-3 beta (Homo sapiens) (UniProt P49841)	10.2%
Cc1cc(Cl)cc2c1NC(=O)C2=NNc1ccc(S(N)(=O)=O)cc1	Glycogen synthase kinase-3 beta (Homo sapiens) (UniProt P49841)	5.76%
O=C1Nc2ccc(-c3cccnc3)cc2C1=Cc1cc(Br)c(O)c(Br)c1	Glycogen synthase kinase-3 beta (Homo sapiens) (UniProt P49841)	21.4%
Cc1cc(-c2ccccn2)cc(C)c1/C=C/c1cncc(-c2nn[nH]n2)c1	Glycogen synthase kinase-3 beta (Homo sapiens) (UniProt P49841)	13.7%
N#Cc1c(NC(=O)c2ccccc2F)sc2c1CCCC2	Glycogen synthase kinase-3 beta (Homo sapiens) (UniProt P49841)	-0.09%
CCOc1nccc2c1nc(-c1nonc1N)n2CC	Glycogen synthase kinase-3 beta (Homo sapiens) (UniProt P49841)	11.9%
COc1cc2ncnc(Nc3ccc(C)c(O)c3)c2cc1OC	Glycogen synthase kinase-3 beta (Homo sapiens) (UniProt P49841)	11.2%

---

target-desc: Serine/threonine-protein kinase Chk1 (Homo sapiens);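 further: reported figure is the mean percent inhibition of CHEK1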
condition: at 0.1 µM

sample-smiles	units-of-measure	inhibition
FC(F)(F)c1ccc(-c2nn3ncccc3c2-c2ccnc(Nc3ccc4c(c3)OCCO4)n2)cc1	%	0.08
Cc1cc(O)cc(C)c1/C=C/c1cncc(C(=O)N(C)C)c1	%	5.84
NS(=O)(=O)c1ccc(NC=C2C(=O)Nc3ccc4ncsc4c32)cc1	%	14.5
NS(=O)(=O)c1cccc(Nc2cc(-c3ccc(F)cc3)n[nH]2)c1	%	-1.71
CC(C)c1ccc2c(c1)NC(=O)/C2=N/Nc1ccc(S(N)(=O)=O)cc1	%	-7.82
O=C1Nc2ccccc2/C1=C/Nc1ccc2[nH]c(=O)[nH]c2c1	%	0.84
N#Cc1c(NC(=O)c2ccccc2F)sc2c1CCCC2	%	-0.69
C[C@@H](Oc1cc(-n2cnc3ccc(OCC4CCN(C)CC4)cc32)sc1C(N)=O)c1ccccc1C(F)(F)F	%	-1.68
N#Cc1cccc(Nc2nccc(-c3cnn4ncccc34)n2)c1	%	3
Nc1nccc(-c2c(-c3ccc(F)cc3)nn3cc(C(F)(F)F)ccc23)n1	%	-1.52

---

Tested on: Tyrosine-protein kinase ABL1 (Homo sapiens), P00519 [Q252H]
condition: at 1 µM
Recorded inhibition for the following compounds

sample-smiles	inhibition
NS(=O)(=O)c1ccc(N/N=C2\C(=O)Nc3ccc(Cl)cc32)cc1	9.91%
COC(=O)c1cncc(/C=C/c2c(C)cc(O)cc2C)c1	64.1%
Cc1ccc2c(-c3ccnc(Nc4cccc(C(F)(F)F)c4)n3)c(-c3ccccc3)nn2n1	69.1%
Cc1nc(-c2ccccc2)n2nc(NCCCN3CCOCC3)ncc12	3.3%
Cc1ccc2c(-c3ccnc(Nc4ccc5c(c4)OCCO5)n3)c(-c3ccc(C(F)(F)F)cc3)nn2n1	4.16%
c1ccc(Cc2nc3ccc(Nc4ncnc5ccccc45)cc3[nH]2)cc1	6.39%
O=C1Nc2ccccc2/C1=C/Nc1ccc2[nH]c(=O)[nH]c2c1	26%
COC(=O)c1ccc2c(c1)C(=Cc1cc(Br)c(O)c(Br)c1)C(=O)N2	15.8%
Cc1cc(-c2ccccn2)cc(C)c1/C=C/c1cncc(-c2nn[nH]n2)c1	9.01%
Nc1nccc(-c2c(-c3ccc(F)cc3)nn3cc(C(F)(F)F)ccc23)n1	0.27%

---

target-desc: Protein-tyrosine kinase 6 (Homo sapiens) (UniProt Q13882)
Sequence (Q13882 whole entry, looked up): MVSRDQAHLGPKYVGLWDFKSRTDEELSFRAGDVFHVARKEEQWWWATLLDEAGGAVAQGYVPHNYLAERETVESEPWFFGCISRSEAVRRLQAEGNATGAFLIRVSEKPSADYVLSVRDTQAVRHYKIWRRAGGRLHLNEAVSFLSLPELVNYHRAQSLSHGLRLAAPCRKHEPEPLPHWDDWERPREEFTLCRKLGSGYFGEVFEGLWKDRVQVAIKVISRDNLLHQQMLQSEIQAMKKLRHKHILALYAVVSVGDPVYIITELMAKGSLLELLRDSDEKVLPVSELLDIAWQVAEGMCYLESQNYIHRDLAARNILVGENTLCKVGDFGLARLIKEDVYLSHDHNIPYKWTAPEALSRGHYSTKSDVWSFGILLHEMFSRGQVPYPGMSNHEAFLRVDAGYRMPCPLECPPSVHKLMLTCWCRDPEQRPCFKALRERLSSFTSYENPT
condition: at 0.1 µM
Description: GSK_PKIS: BRK mean inhibition at 0.1 uM [Nanosyn]
Some compounds, each annotated with its measured inhibition.
reported-property: inhibition (%)

sample-smiles	reported-property	units-of-measure	readout-number
COc1cc(Nc2nccc(-c3cnn4ncccc34)n2)cc(OC)c1	inhibition	%	0.23
COc1cc2ncn(-c3cc(OCc4ccccc4S(C)(=O)=O)c(C#N)s3)c2cc1OC	inhibition	%	4.42
O=C1Nc2ccc(-c3cccnc3)cc2C1=Cc1cc(Br)c(O)c(Br)c1	inhibition	%	4.36
COc1ccc(-c2nn3ncccc3c2-c2ccnc(Nc3cccc(C(F)(F)F)c3)n2)cc1	inhibition	%	2.5
Cc1cc(Cl)cc2c1NC(=O)C2=NNc1ccc(S(N)(=O)=O)cc1	inhibition	%	-0.72
CN(C)c1cc2c(Nc3ccc4c(cnn4Cc4ccccc4)c3)ncnc2cn1	inhibition	%	5.3
COc1ccc2ncnc(Nc3ccc(OCc4ccccc4)cc3)c2c1	inhibition	%	0.54
COc1cccc(-n2ncc3c(N/N=C/c4ccc(S(C)(=O)=O)cc4)ncnc32)c1	inhibition	%	6.33
COC(=O)c1cncc(/C=C/c2c(C)cc(O)cc2C)c1	inhibition	%	11.4
Oc1cccc(-c2nc(-c3ccccc3)[nH]c2-c2ccncc2)c1	inhibition	%	13

---

target-desc: Rho-associated protein kinase 1 (Homo sapiens);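 further: values are mean percent inhibition of ROCK1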
condition: at 0.1 µM
The reader will find reported inhibition values listed item by item below.
reported-property: inhibition (%)

compound	reported-property	units-of-measure	readout-number
NC(=O)c1cccc(Nc2nccc(Nc3cccc(F)c3)n2)c1	inhibition	%	0.28
CCS(=O)(=O)c1ccc(OC)c(Nc2nccc(N(C)c3ccc4c(C)n[nH]c4c3)n2)c1	inhibition	%	1.77
CS(=O)(=O)Nc1cccc(-c2ccc3c(NC(=O)C4CC4)n[nH]c3c2)c1	inhibition	%	0.24
CCCN1CCCC(c2ccc(Nc3nc(Nc4cc(F)ccc4C(N)=O)c4cc[nH]c4n3)c(OC)c2)C1 (centres undefined)	inhibition	%	22.5
NS(=O)(=O)c1ccc(-c2cc3ccncc3cc2OCc2ccccc2)cc1	inhibition	%	0.19
O=C(Nc1ccc(Oc2ccc3[nH]c(NC(=O)c4ccco4)nc3c2)cc1)Nc1cc(C(F)(F)F)ccc1F	inhibition	%	3.36
Cc1ccc2c(-c3ccnc(Nc4cccc(C(F)(F)F)c4)n3)c(-c3ccccc3)nn2n1	inhibition	%	3.08
O=C1Nc2ccc(-c3cccnc3)cc2C1=Cc1cc(Br)c(O)c(Br)c1	inhibition	%	1.68
NS(=O)(=O)c1ccc(NC=C2C(=O)Nc3ccc4ncsc4c32)cc1	inhibition	%	15.5

---

target-desc: RAC-alpha serine/threonine-protein kinase (Homo sapiens) (UniProt P31749);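 further: reported values are mean inhibition figures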
Sequence (P31749 whole entry): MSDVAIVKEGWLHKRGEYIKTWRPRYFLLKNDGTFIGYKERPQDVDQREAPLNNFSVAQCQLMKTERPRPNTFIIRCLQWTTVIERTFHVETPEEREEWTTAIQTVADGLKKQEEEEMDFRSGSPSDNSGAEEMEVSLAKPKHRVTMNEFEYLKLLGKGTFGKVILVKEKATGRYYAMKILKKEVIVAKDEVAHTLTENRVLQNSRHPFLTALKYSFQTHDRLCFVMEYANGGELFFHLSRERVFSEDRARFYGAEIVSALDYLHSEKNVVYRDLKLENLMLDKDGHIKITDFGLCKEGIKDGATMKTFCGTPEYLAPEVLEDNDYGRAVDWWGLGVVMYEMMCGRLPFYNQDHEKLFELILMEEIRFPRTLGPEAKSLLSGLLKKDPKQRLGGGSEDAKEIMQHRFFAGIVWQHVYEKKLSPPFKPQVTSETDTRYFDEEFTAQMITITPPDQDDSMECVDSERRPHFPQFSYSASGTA
condition: at 0.1 µM
Parameter: inhibition. Scope: all listed entries.

sample-smiles	inhibition / %
NS(=O)(=O)c1ccc(N/N=C2\C(=O)Nc3ccc(Cl)cc32)cc1	1.17
Cc1cc(Cl)cc2c1NC(=O)C2=NNc1ccc(S(N)(=O)=O)cc1	0.38
NS(=O)(=O)c1ccc(-c2cc3ccncc3cc2OCc2ccccc2)cc1	0.08
COc1ccc2ncnc(Nc3ccc(OCc4ccccc4)cc3)c2c1	0.35
COc1ccc(-c2nn3ncccc3c2-c2ccnc(Nc3cccc(C(F)(F)F)c3)n2)cc1	0.68
Cc1ccc(O)cc1Nc1ccnc2ccc(S(C)(=O)=O)cc12	0.79
C[C@@H](Oc1cc(-n2cnc3ccc(OCC4CCN(C)CC4)cc32)sc1C(N)=O)c1ccccc1C(F)(F)F	-0.94
CCS(=O)(=O)c1ccc(OC)c(Nc2ncc(-c3cccc(OC)c3)o2)c1	0.36
[O-][S+]1CCN(Cc2ccc(-c3ccc4ncnc(Nc5ccc(OCc6ccccc6)c(Cl)c5)c4c3)o2)CC1	0.1
Cc1ccc(Nc2ccnc(Nc3cccc(C(N)=O)c3)n2)cc1O	-3.35
NC(=O)c1sc(-n2cnc3ccccc32)cc1OCc1ccccc1Br	1.72
NC(=O)c1cccc(Nc2nccc(Nc3cccc(F)c3)n2)c1	0.22
Nc1nccc(-c2c(-c3ccc(F)cc3)nn3cc(C(F)(F)F)ccc23)n1	0.02
COc1cc2ncnc(Nc3ccc4c(cnn4Cc4ccccc4)c3)c2cc1OC	-0.49
COC(=O)Nc1nc2cc(Oc3ccc(NC(=O)Nc4cccc(Br)c4)cc3)ccc2[nH]1	0.46
COc1cc2ncn(-c3cc(OCc4ccccc4S(C)(=O)=O)c(C#N)s3)c2cc1OC	1.44
COc1cc2ncnc(Nc3ccc(C)c(O)c3)c2cc1OC	0.49
Nc1nccc(C#Cc2cncnc2Nc2ccc(OCc3cccc(F)c3)c(Cl)c2)n1	1.34
OCc1ccc(-c2nc(-c3ccccn3)c(-c3ccc4c(c3)OCO4)[nH]2)cc1	1.19
COc1cccc(-n2ncc3c(N/N=C/c4ccc(S(C)(=O)=O)cc4)ncnc32)c1	-3.17
CN(c1ccc(NC(=O)Nc2ccc(OC(F)(F)F)cc2)cc1)c1ccnc(Nc2cccc(S(N)(=O)=O)c2)n1	0.77
FC(F)(F)c1ccc(-c2nn3ncccc3c2-c2ccnc(Nc3ccc4c(c3)OCCO4)n2)cc1	0.91
